FYI, the data here is from patent US20260184738A1.

TEST_SUMMARY: in vitro

{"columns": ["MOLECULE", "CC50"],
 "data": [
  ["CC(C)OC(=O)[C@H](C)N[P@@](=O)(Oc1ccccc1)OC1[C@@H](CO[P@@](=O)(N[C@@H](C)C(=O)OC(C)C)Oc2ccccc2)O[C@@H](n2cnc3sc4c(N)nc(N)nc4c32)C1(C)F (stereo partly shown) [CEM-042]", "> 100 µM"]
]}

* * *

List of CC50 values.
TEST_SUMMARY: Cytotoxicity (CC50) alongside DENV2 assay

{"columns": ["COMPOUND", "CC50"],
 "data": [
  ["COc1nc(OC)c2sc3ncn([C@@H]4O[C@H](CO[P@@](=O)(N[C@@H](C)C(=O)OC(C)C)Oc5ccccc5)C(O)C4O)c3c2n1 (stereo partly drawn)", "> 100 µM"],
  ["CC(C)OC(=O)[C@H](C)N[P@@](=O)(Oc1ccccc1)OC1[C@@H](CO[P@@](=O)(N[C@@H](C)C(=O)OC(C)C)Oc2ccccc2)O[C@@H](n2cnc3sc4c(N)nc(N)nc4c32)C1(C)F (stereo partly drawn)", "> 100 µM"],
  ["Nc1nc2c(sc3ncn([C@@H]4O[C@H](CO)C(O)C4O)c32)c(=O)[nH]1 (stereo partly drawn)", "> 100 µM"]
]}

* * *

Tested on: SARS-CoV-2 (Omicron)
TEST_SUMMARY: microbe, parasite or virus in culture
Assay type: cell-based
CONDITION_CONTEXT: Severe acute respiratory syndrome coronavirus 2, Calu-3, read-out: IC50, SARS-CoV-2 (Omicron) (Calu3) #1
List of IC50 values.

{"columns": ["COMPOUND", "READOUT_QUALIFIER", "IC50 (µM)"],
 "data": [
  ["Nc1nc(N)c2sc3ncn([C@@H]4O[C@H](CO)C(O)C4O)c3c2n1 (some centres unmarked)", "=", 56.4],
  ["COc1nc(OC)c2sc3ncn([C@@H]4O[C@H](CO[P@@](=O)(N[C@@H](C)C(=O)OC(C)C)Oc5ccccc5)C(O)C4O)c3c2n1 (some centres unmarked)", ">", 100],
  ["CC(C)OC(=O)[C@H](C)N[P@@](=O)(Oc1ccccc1)OC1[C@@H](CO[P@@](=O)(N[C@@H](C)C(=O)OC(C)C)Oc2ccccc2)O[C@@H](n2cnc3sc4c(N)nc(N)nc4c32)C1(C)F (some centres unmarked)", "=", 7.36],
  ["CC(C)OC(=O)[C@H](C)N[P@](=O)(OC[C@H]1O[C@@H](n2cnc3sc4c(N)nc(N)nc4c32)C(C)(F)C1OC(=O)C(C)C)Oc1ccccc1 (some centres unmarked)", "=", 37.9],
  ["CCC(CC)COC(=O)[C@H](C)N[P@@](=O)(Oc1ccccc1)OC1[C@@H](CO[P@@](=O)(N[C@@H](C)C(=O)OCC(CC)CC)Oc2ccccc2)O[C@@H](n2cnc3sc4c(N)nc(N)nc4c32)C1(C)F (some centres unmarked)", "=", 21.9],
  ["CCC(CC)COC(=O)[C@H](C)N[P@](=O)(OC[C@H]1O[C@@H](n2cnc3sc4c(N)nc(N)nc4c32)C(O)C1O)Oc1ccccc1 (some centres unmarked)", "=", 59.3],
  ["CCC(CC)COC(=O)[C@H](C)N[P@](=O)(OC[C@H]1O[C@@H](n2cnc3sc4c(N)nc(N)nc4c32)C(C)(F)C1O)Oc1ccccc1 (some centres unmarked)", "=", 20.6],
  ["CCC(CC)COC(=O)[C@H](C)N[P@](=O)(OC[C@H]1O[C@@H](n2cnc3sc4c(N)nc(N)nc4c32)[C@](C)(F)C1OC(=O)C(C)C)Oc1ccccc1 (some centres unmarked)", "=", 19.6]
]}
